# Tested on: P388 leukemia ip, CD2F1 mice, survival T/C
# TEST_NAME: NCI In Vivo Anticancer Drug Screen. Data for tumor model P388 Leukemia (intraperitoneal) in CD2F1 (CDF1) mice
# STUDY_CONDITIONS: endpoint: median survival time; dose: 25.0 mg/kg/injection; schedule: Q04DX002 (ip); vehicle: saline with Tween-80
# Experimental: The antitumor activity of compounds was measured in mice bearing transplantable tumors. Survival or tumor size were measured and the results are expressed as the measurement made in the treated group (T) divided by the measurement made in the vehicle treated control group (C). The tumor model used in this assay is P388 Leukemia (intraperitoneal) in CD2F1 (CDF1) mice
Toxic doses and inconclusive results are not listed. Rule for the calls: active = survival T/C of 150% or more; inactive = T/C below 125% in these data.
Labels: yes for active, no for inactive

COMPOUND | ASSIGNED_LABEL
CC(=O)CCNc1ccc(O)c2c1C(=O)c1ccccc1C2=O | no
N#CC1=CC2C3C(=O)N(c4ccccc4)C(=O)C3C1N(Cc1ccccc1)C2c1ccccc1 (configuration not stated) | no
c1csc(SSc2nccs2)n1 | no
CCCSc1ccc([N+](=O)[O-])cc1 | no
CCO/C([O-])=C(/C(=N/S(=O)(=O)c1ccc(C)cc1)SC)[n+]1ccccc1 | no
[Cl][Pt+2][Cl].[NH-]c1ccc(S(=O)(=O)O)cc1[NH-] | no
[Cl][Pt+2][Cl].[NH-]CC([NH-])c1ccccc1 (configuration not stated) | yes
